- TARGET OR TEST SYSTEM: ErbB2 insYVMA (HER2-YVMA, SEQ ID NO: 2) (Homo sapiens, UniProt P04626, INS775YVMA/P1170A)
- Sequence (P04626 with tags, fused parts or gaps INS775YVMA/P1170A limits assumed): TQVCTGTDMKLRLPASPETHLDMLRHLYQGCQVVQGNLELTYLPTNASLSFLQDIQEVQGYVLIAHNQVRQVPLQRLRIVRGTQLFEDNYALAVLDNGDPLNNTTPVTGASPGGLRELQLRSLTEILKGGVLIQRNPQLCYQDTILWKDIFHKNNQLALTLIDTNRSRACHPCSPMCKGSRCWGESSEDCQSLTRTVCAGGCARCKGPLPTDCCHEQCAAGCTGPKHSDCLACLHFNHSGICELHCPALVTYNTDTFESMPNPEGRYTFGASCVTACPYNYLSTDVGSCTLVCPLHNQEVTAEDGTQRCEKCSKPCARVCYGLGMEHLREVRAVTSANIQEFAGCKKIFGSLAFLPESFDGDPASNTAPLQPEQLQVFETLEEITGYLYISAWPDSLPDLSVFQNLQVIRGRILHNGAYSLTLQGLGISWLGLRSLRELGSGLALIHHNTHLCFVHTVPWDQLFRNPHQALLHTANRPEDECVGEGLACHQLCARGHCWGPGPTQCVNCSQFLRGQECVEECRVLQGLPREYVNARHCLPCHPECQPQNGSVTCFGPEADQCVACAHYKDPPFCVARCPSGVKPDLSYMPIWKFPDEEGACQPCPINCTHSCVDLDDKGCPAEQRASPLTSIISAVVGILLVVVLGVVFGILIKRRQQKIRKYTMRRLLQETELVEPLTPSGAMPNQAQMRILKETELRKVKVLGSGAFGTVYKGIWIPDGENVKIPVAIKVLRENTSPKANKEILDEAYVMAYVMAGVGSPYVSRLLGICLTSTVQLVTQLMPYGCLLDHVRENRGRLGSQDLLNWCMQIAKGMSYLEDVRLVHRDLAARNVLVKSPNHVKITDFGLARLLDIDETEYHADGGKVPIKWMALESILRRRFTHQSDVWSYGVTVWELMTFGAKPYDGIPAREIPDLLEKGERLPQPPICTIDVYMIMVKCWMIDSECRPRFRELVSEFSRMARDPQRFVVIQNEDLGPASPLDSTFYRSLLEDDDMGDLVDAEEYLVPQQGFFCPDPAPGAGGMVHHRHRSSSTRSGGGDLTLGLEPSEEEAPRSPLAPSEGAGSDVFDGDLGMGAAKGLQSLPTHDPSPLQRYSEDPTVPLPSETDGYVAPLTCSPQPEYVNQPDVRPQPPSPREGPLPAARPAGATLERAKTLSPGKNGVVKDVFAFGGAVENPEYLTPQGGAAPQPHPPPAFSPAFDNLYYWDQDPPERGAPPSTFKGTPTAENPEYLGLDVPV
- PROTOCOL DETAILS: biochemical
- COND: ErbB2 insYVMA enzyme assay; read-out: Assay 1 IC50
OBSERVATION TYPE: IC50
Answer format: value, then unit.

Solved cases below.
CON(C)c1ncc2ncnc(Nc3ccc(Oc4ccc5c(c4)ncn5C)c(C)c3)c2n1 ... 0.0255 µM
Cc1cc(Nc2ncnc3cnc(N(C)C4CC4)nc23)ccc1Oc1ccc2c(c1)ncn2C ... 0.117 µM
Cc1cc(Nc2ncnc3cnc(N(C)[C@H]4CCC[C@@H]4O)nc23)ccc1Oc1ccc2c(c1)ncn2C ... 0.0322 µM
Cc1cc(Nc2ncnc3cnc(N4C[C@@H](O)C5(CC5)C4)nc23)ccc1Oc1ccc2c(c1)ncn2C ... 0.0109 µM
Cc1cc(Nc2ncnc3cnc(N(C)[C@H]4CCOC4)nc23)ccc1Oc1ccn2ncnc2c1 ... 0.0154 µM
Cc1cc(Nc2ncnc3cnc(N4CCO[C@H](C)C4)nc23)ccc1Oc1ccc2c(c1)ncn2C ... 0.0465 µM
CON1CCN(c2ncc3ncnc(Nc4ccc(Oc5ccc6c(c5)ncn6C)c(C)c4)c3n2)CC1 ... 0.0335 µM
Cc1cc(Nc2ncnc3cnc(N(C)CC(F)F)nc23)ccc1Oc1ccc2c(c1)ncn2C ... 0.0302 µM

Input Cc1cc(Nc2ncnc3cnc(N(C)Cc4ccccc4)nc23)ccc1Oc1ccc2c(c1)ncn2C . Output IC50: 0.406 µM

Input Cc1cc(Nc2ncnc3cnc(N(C)C)nc23)ccc1Oc1ccc2csnc2c1 [Example 49, 2,2,2-trifluoroacetate] . Output IC50: 0.0553 µM

Input Cc1cc(Nc2ncnc3cnc(O[C@@H]4CNC[C@H](F)C4)nc23)ccc1Oc1ccc2c(c1)ncn2C . Output IC50: 0.115 µM

Input Cc1cc(Nc2ncnc3cnc(N4CC5CC5(O)C4)nc23)ccc1Oc1ccc2c(c1)ncn2C (stereo not drawn) . Output IC50: 0.0294 µM

Input Cc1cc(Nc2ncnc3cnc(N(C)CC4CCO4)nc23)ccc1Oc1ccc2c(c1)ncn2C (stereo not drawn) . Output IC50: 0.04 µM

Input Cc1cc(Nc2ncnc3cnc(N4CC[C@]5(CCO5)C4)nc23)ccc1Oc1ccc2c(c1)ncn2C . Output IC50: 0.0228 µM

Input Cc1cc(Nc2ncnc3cnc(N4C[C@@H]5C[C@H]4C[C@H]5O)nc23)ccc1Oc1ccc2c(c1)ncn2C . Output IC50: 0.0071 µM

Input Clc1cc(Nc2ncnc3cnc(N4CCOCC4)nc23)ccc1Oc1ccn2ncnc2c1 . Output IC50: 0.0183 µM

Input Cc1cc(Nc2ncnc3cnc(N4CC[C@H](C(C)(C)O)C4)nc23)ccc1Oc1ccc2c(c1)ncn2C . Output IC50: 0.0155 µM

Input Cc1cc(Nc2ncnc3cnc(N4CC[C@H]4C(F)F)nc23)ccc1Oc1ccc2c(c1)ncn2C . Output IC50: 0.0621 µM

Input Cc1cc(Nc2ncnc3cnc(N4C[C@H]5C[C@@H]4CO5)nc23)ccc1Oc1ccc2c(c1)ncn2C . Output IC50: 0.0223 µM

Input O[C@H]1[C@@H]2C[C@H]1CN(c1ncc3ncnc(Nc4ccc(Oc5ccn6ncnc6c5)c(Cl)c4)c3n1)C2 . Output IC50: 0.054 µM

Input Cc1c(Oc2ccc3c(c2)ncn3C)ccc(Nc2ncnc3cnc(N4CCOCC4)nc23)c1F . Output IC50: 0.0576 µM

Input Cc1cc(Nc2ncnc3cnc(N4CC(C(C)(C)O)C4)nc23)ccc1Oc1ccn2ncnc2c1 . Output IC50: 0.113 µM

Input Clc1cc(Nc2ncnc3cnc(N4CCN5CCOC[C@@H]5C4)nc23)ccc1Oc1ccn2ncnc2c1 . Output IC50: 0.0218 µM

Input COC[C@@H]1CCN1c1ncc2ncnc(Nc3ccc(Oc4ccn5ncnc5c4)c(Cl)c3)c2n1 . Output IC50: 0.0179 µM

Hey, just so you know, these numbers are from patent US11834453B2.
